Origin of values: PubChem BioAssay

- Test Method Notes: reversal of MRP1-mediated doxorubicin resistance, pilot screen, H69AR cells, doxorubicin co-treatment (AID 601)
- Condition Label: H69AR cells + 2 uM doxorubicin, CellTiter-Glo, 72 h; at 10 µM; stronger effect = higher value
Consider the following compounds; for each one, report its differential viability (reversal).
Provide the reading as a plain figure in %.

Read off the recorded differential viability (reversal) for CC(C)(C)c1cc(C(=S)N2CCN(CCO)CC2)cc(C(C)(C)C)c1O
17.4

Read off the recorded differential viability (reversal) for FC(F)(F)c1cc(-c2ccco2)nc(N2CCOCC2)n1
18.6

Read off the recorded differential viability (reversal) for COc1ccccc1OCCSc1nc2ccccc2c(=O)[nH]1
15.1

Read off the recorded differential viability (reversal) for Cc1cc(-n2c(C)cc(C(=O)CSc3nc4ccccc4c(=O)n3Cc3ccco3)c2C)no1
4.09

Read off the recorded differential viability (reversal) for Cc1nn(C)cc1NC(=O)CCSc1nc(-c2ccco2)cc(C(F)(F)F)n1
5.31

Read off the recorded differential viability (reversal) for CCNCC(O)COCC(O)CNCC (stereo not drawn)
5.55

Read off the recorded differential viability (reversal) for CCOC(=O)C(NC(=O)c1ccccc1)(Nc1cc(C)on1)C(F)(F)F (stereo not drawn)
11.1

Read off the recorded differential viability (reversal) for CCOc1ccc(C(C)=O)cc1COc1ccc(-n2cnnn2)cc1
-2.58

Read off the recorded differential viability (reversal) for Cc1cc2c(cc1C)-c1nnnn1C(C)(C)C2
4.78

Read off the recorded differential viability (reversal) for CC(=O)c1cccc(N(CC(=O)N2CCCC2)S(C)(=O)=O)c1
5.66

Read off the recorded differential viability (reversal) for Cc1nc(C)c(C(=O)C2=C(O)C(=O)N(CCN3CCOCC3)C2c2cccnc2)s1 (stereo not drawn)
10.4

Read off the recorded differential viability (reversal) for O=C1C2CC=C(Cl)CC2C(=O)N1c1ncn[nH]1 (stereo not drawn)
2.85

Read off the recorded differential viability (reversal) for Cc1cc(S(=O)(=O)NC2CCCCC2)ccc1OCC(=O)NCc1ccccn1
6.34

Read off the recorded differential viability (reversal) for Cc1cc2oc(=O)cc(CN3CCN(Cc4ccc5c(c4)OCO5)CC3)c2cc1C
0.615

Read off the recorded differential viability (reversal) for COc1ccc(C(=O)NCCn2ccc3ccccc32)cc1
8.59

Read off the recorded differential viability (reversal) for Cc1ccc(CCNC(=O)C2CCN(S(=O)(=O)c3ccc4c(c3)CCC(=O)N4)CC2)cc1
10.6

Read off the recorded differential viability (reversal) for O=c1c2c3nc4ccccc4nc3n(CC3CCCO3)c2ncn1CCc1ccccc1 (stereo not drawn)
38.6

Read off the recorded differential viability (reversal) for Cc1nc2ccccc2c(=O)n1CC(=O)N1CCOCC1
-9.46

Read off the recorded differential viability (reversal) for CCC(C)c1ccc(NC(=O)c2cccnc2)cc1 (stereo not drawn)
5.06

Read off the recorded differential viability (reversal) for O=c1[nH]c(SCc2ccccc2Cl)nc2c1CCCC2
-3.21

Read off the recorded differential viability (reversal) for CCC(=O)N1C(=O)CCN(C(C)=O)c2ccccc21
-1.28

Read off the recorded differential viability (reversal) for O=C(CSc1ccc(Cl)cc1)OCc1nnc(-c2ccccc2)o1
29.6

Read off the recorded differential viability (reversal) for Cc1cccc(C(=O)N2CCC(n3nnc4cc(F)ccc43)CC2)c1
-3.98
